Source of measurements: paper PMC10066365

Target: rat VAChT (Rattus norvegicus)
Construct: expressed in transfected cells; host or cells: rat PC12 (PC12 A123.7) cells, stably transfected; shared by Dr. Ali Roghani (Texas Tech University)
Sequence (Q62666 whole entry): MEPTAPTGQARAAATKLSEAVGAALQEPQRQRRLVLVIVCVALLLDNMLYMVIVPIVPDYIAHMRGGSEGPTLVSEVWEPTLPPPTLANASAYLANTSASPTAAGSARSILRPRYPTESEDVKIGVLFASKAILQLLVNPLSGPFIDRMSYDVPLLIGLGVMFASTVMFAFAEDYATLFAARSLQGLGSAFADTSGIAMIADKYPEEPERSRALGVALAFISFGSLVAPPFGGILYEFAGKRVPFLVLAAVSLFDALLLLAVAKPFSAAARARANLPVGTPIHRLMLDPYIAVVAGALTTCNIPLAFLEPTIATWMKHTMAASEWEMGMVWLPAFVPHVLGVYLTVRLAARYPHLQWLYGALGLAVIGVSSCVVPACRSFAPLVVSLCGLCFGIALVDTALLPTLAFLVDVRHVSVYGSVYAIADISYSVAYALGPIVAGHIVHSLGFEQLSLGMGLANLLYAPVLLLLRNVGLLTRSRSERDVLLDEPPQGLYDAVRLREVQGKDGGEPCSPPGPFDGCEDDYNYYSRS
Experiment: [3H]Vesamicol competitive radioligand binding, PC12 cells expressing ratVAChT
Settings: [3H]Vesamicol binding, PC12; experiment 1; read-out: expt 1 Ki (M) vs. rat VAChT (PC12)
Quantity kind: Ki (M)
Express it in M; write the number only.

Completed entries (count: 7):
[
  {
    "Compound": "Cc1ccc(N2CCN(C3CCC(C)C3)CC2)cc1 (centres unmarked)",
    "System": "rat VAChT (Rattus norvegicus)",
    "Ki, M": "4.82e-07"
  },
  {
    "Compound": "Cc1ccc(N2CCN(CC3CC4C=CC3C4)CC2)cc1 (centres unmarked)",
    "System": "rat VAChT (Rattus norvegicus)",
    "Ki, M": "1.91e-07"
  },
  {
    "Compound": "FC(F)(F)c1cccc(N2CCN(CC3CCCC3)CC2)c1",
    "System": "rat VAChT (Rattus norvegicus)",
    "Ki, M": "4.89e-06"
  },
  {
    "Compound": "CC1CCC(N2CCN(c3ccc(F)cc3)CC2)CC1 (centres unmarked)",
    "System": "rat VAChT (Rattus norvegicus)",
    "Ki, M": "5.54e-07"
  },
  {
    "Compound": "c1ccc(N2CCN(CC3CCCC3)CC2)cc1",
    "System": "rat VAChT (Rattus norvegicus)",
    "Ki, M": "2.34e-06"
  },
  {
    "Compound": "CC1CCC(N2CCN(c3ccccc3)CC2)CC1 (centres unmarked)",
    "System": "rat VAChT (Rattus norvegicus)",
    "Ki, M": "1.82e-06"
  },
  {
    "Compound": "Clc1ccc(N2CCN(CC3CC4C=CC3C4)CC2)cc1 (centres unmarked)",
    "System": "rat VAChT (Rattus norvegicus)",
    "Ki, M": "9.16e-08"
  }
]

Proceeding to the next compound to report its Ki.
# input I have this compound here, `c1ccc(N2CCN(C3CCCCCC3)CC2)cc1` , and I need its recorded Ki.
# output 1.85e-06
